Consider the following molecules and their measured pIC50 readings.
# Tested on: 454973-116-R2-J3-PDC spheroids, percent test/control viability;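 also: spheroids exposed to compounds for 7 days before readout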
# assay_text: Anticancer human tumor 454973-116-R2-J3-PDC patient-derived pancreatic carcinoma cell line growth inhibition [CLK]
# experimental_parameters: curve of first compound; second compound 1 µM; spheroids with HUVEC and MSC
pIC50: −log10 of the molar value.

Worked set:
molecule="Nc1ccccc1NC(=O)c1ccc(CNC(=O)OCc2cccnc2)cc1 + CNC(=O)c1ccc(Nc2nc(OC3CCCC3)c3c(-c4ccc5nc(C)oc5c4)c[nH]c3n2)c(OC)c1" result="> 7.50"
molecule="O=c1[nH]cc(F)c(=O)[nH]1 + CN1CCN(c2cc(C(=O)Nc3cc4cc(-c5cnn(C)c5)ccc4cn3)ccn2)CC1" result="> 7.50"
molecule="Cn1ncnc1[C@H]1c2n[nH]c(=O)c3cc(F)cc(c23)N[C@@H]1c1ccc(F)cc1 + CN1CCN(c2cc(C(=O)Nc3cc4cc(-c5cnn(C)c5)ccc4cn3)ccn2)CC1" result="> 9.50"

Entry under test: C=CC(=O)N1CCN(c2nc(=O)n(-c3c(C)ccnc3C(C)C)c3nc(-c4c(O)cccc4F)c(F)cc23)C(C)C1 (stereo unspecified) + CNC(=O)c1ccc(Nc2nc(OC3CCCC3)c3c(-c4ccc5nc(C)oc5c4)c[nH]c3n2)c(OC)c1 . Its pIC50 was > 7.50

Entry under test: COc1c(OCCCN2CCOCC2)ccc2c3n(c(=NC(=O)c4cnc(N)nc4)nc12)CCN3 + CN1CCN(c2cc(C(=O)Nc3cc4cc(-c5cnn(C)c5)ccc4cn3)ccn2)CC1 . Its pIC50 was > 8.50

Entry under test: CC(C)CC(NC(=O)C(Cc1ccccc1)NC(=O)c1cnccn1)B(O)O (stereo unspecified) + CN1CCN(c2cc(C(=O)Nc3cc4cc(-c5cnn(C)c5)ccc4cn3)ccn2)CC1 . Its pIC50 was > 9.02
